# reported % Kreuzreaktivität; entries follow
Tested on: gegen Progesteron-11α-bernsteinsäurehalbester-ovalbumin erzeugten Antiserum
PROTOCOL NOTES: Cross-reactivity of steroids in the radioimmunoassay for progesterone (competitive binding, 125I-labelled progesterone-3 tracer, charcoal separation)
Set-up: species or system Kaninchen
STATED CONDITIONS: relative to Progesteron = 100; acid buffer; heterologous system (11α-protein conjugate antiserum, 3-iodinated tracer)

INSERT INTO results (compound, measured_result) VALUES
  ('CC(=O)[C@H]1CC[C@H]2[C@@H]3CCC4=CC(=O)CC[C@]4(C)[C@H]3CC[C@]12C [Progesteron]', '100%'),
  ('CC(=O)[C@H]1CC[C@H]2[C@@H]3CC=C4C[C@@H](O[C@@H]5O[C@H](C(=O)O)[C@@H](O)[C@H](O)[C@H]5O)CC[C@]4(C)[C@H]3CC[C@]12C [Pregnenolonglucuronid]', '10,0%'),
  ('CC(=O)[C@H]1CC[C@H]2[C@@H]3CC=C4C[C@@H](OS(=O)(=O)O)CC[C@]4(C)[C@H]3CC[C@]12C [Pregnenolonsulfat]', '0,4%'),
  ('C[C@H](O)[C@H]1CC[C@H]2[C@@H]3CCC4=CC(=O)CC[C@]4(C)[C@H]3CC[C@]12C [20α-Hydroxyprogesteron]', '0,25%'),
  ('CC(=O)[C@@]1(O)CC[C@H]2[C@@H]3CCC4=CC(=O)CC[C@]4(C)[C@H]3CC[C@@]21C [17α-Hydroxyprogesteron]', '1,3%'),
  ('CC(=O)[C@H]1CC[C@H]2[C@@H]3CC[C@@H]4C[C@H](O)CC[C@]4(C)[C@H]3CC[C@]12C [5ß-Pregnan-3α-01-20-on]', '8,0%');

// recorded % Kreuzreaktivität for CC(=O)[C@H]1CC[C@H]2[C@@H]3CC[C@H]4CC(=O)CC[C@]4(C)[C@H]3CC[C@]12C [5α-Pregnan-3,20-dion] : 6,0%

// recorded % Kreuzreaktivität for CC(=O)[C@H]1CC[C@H]2[C@@H]3CC=C4C[C@@H](O)CC[C@]4(C)[C@H]3CC[C@]12C [Pregnenolon] : 10,5%

// recorded % Kreuzreaktivität for C[C@]12CC[C@H]3[C@@H](CCC4=CC(=O)CC[C@@]43C)[C@@H]1CC[C@@H]2C(=O)CO [Desoxycorticosteron] : 0,01%

// recorded % Kreuzreaktivität for C[C@]12C[C@H](O)[C@H]3[C@@H](CCC4=CC(=O)CC[C@@]43C)[C@@H]1CC[C@@H]2C(=O)CO [Corticosteron] : 2,7%

// recorded % Kreuzreaktivität for C[C@H](O)[C@H]1CC[C@H]2[C@@H]3CC[C@@H]4C[C@H](O)CC[C@]4(C)[C@H]3CC[C@]12C [5ß-Pregnan-3α, 20α-diol] : 0,7%
